target: T1, extracellular domain (ECD) of human CD47 (19aa-139aa) with C-terminal 6xHis tag (human, UniProt Q08722 19-139); assay: ELISA, recombinant human CD47; EC50 as grade, legend the 11th table, row 38
T1 construct: also called recombinant CD47; recombinant human CD47
T1 sequence (Q08722 other isoform, or with tags, fused parts or gaps limits assumed): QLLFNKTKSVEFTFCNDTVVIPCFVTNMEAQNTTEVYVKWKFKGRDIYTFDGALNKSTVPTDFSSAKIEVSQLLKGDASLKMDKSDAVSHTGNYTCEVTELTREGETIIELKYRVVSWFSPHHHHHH
parameter: EC50

Example entries begin here.
binder	parameter	data-value
hu.18B9.3i HC_T100b_A (antibody, V domains shown, Alanine scan variant of hu.18B9.3i; Kabat numbering) VH: EVQLVESGGGLVQPGGSLRLSCAASGFSFNSGYMSWVRQAPGKGLEWIASIYAGSSGKTYYADWAKGRFTISKTSSKTTVYLQMNSLRAEDTAVYYCARDSGGTYYADYLYLWGQGTLVTVSS VL: DIQMTQSPSSLSASVGDRVTITCRASEGISSYLSWYQQKPGKAPKLLIYKASTLTSGVPSRFSGSGSGTDFTLTISSLQPEDFATYYCQSTYGSSGSSGYGAAFGGGTKVEIK	EC50	0.01 to 0.5 nM
hu.18B9.3i (antibody, V domains shown, Humanised 18B9, parent of the alanine scan; also called hu.18B9.3i antibody) VH: EVQLVESGGGLVQPGGSLRLSCAASGFSFNSGYMSWVRQAPGKGLEWIASIYAGSSGKTYYADWAKGRFTISKTSSKTTVYLQMNSLRAEDTAVYYCARDSGGTYYTDYLYLWGQGTLVTVSS VL: DIQMTQSPSSLSASVGDRVTITCRASEGISSYLSWYQQKPGKAPKLLIYKASTLTSGVPSRFSGSGSGTDFTLTISSLQPEDFATYYCQSTYGSSGSSGYGAAFGGGTKVEIK	EC50	0.01 to 0.5 nM
hu.18B9.3i LC_G95f_A (antibody, V domains shown, Alanine scan variant of hu.18B9.3i; Kabat numbering) VH: EVQLVESGGGLVQPGGSLRLSCAASGFSFNSGYMSWVRQAPGKGLEWIASIYAGSSGKTYYADWAKGRFTISKTSSKTTVYLQMNSLRAEDTAVYYCARDSGGTYYTDYLYLWGQGTLVTVSS VL: DIQMTQSPSSLSASVGDRVTITCRASEGISSYLSWYQQKPGKAPKLLIYKASTLTSGVPSRFSGSGSGTDFTLTISSLQPEDFATYYCQSTYGSSGSSGYAAAFGGGTKVEIK	EC50	0.01 to 0.5 nM

Lookup: Please report EC50 for the following binder: hu.18B9.3i HC_L100e_A (antibody, V domains shown, Alanine scan variant of hu.18B9.3i; Kabat numbering) VH: EVQLVESGGGLVQPGGSLRLSCAASGFSFNSGYMSWVRQAPGKGLEWIASIYAGSSGKTYYADWAKGRFTISKTSSKTTVYLQMNSLRAEDTAVYYCARDSGGTYYTDYAYLWGQGTLVTVSS VL: DIQMTQSPSSLSASVGDRVTITCRASEGISSYLSWYQQKPGKAPKLLIYKASTLTSGVPSRFSGSGSGTDFTLTISSLQPEDFATYYCQSTYGSSGSSGYGAAFGGGTKVEIK
Found: > 5 nM

Lookup: Given the binder hu.18B9.3i LC_S95c_A (antibody, V domains shown, Alanine scan variant of hu.18B9.3i; Kabat numbering) VH: EVQLVESGGGLVQPGGSLRLSCAASGFSFNSGYMSWVRQAPGKGLEWIASIYAGSSGKTYYADWAKGRFTISKTSSKTTVYLQMNSLRAEDTAVYYCARDSGGTYYTDYLYLWGQGTLVTVSS VL: DIQMTQSPSSLSASVGDRVTITCRASEGISSYLSWYQQKPGKAPKLLIYKASTLTSGVPSRFSGSGSGTDFTLTISSLQPEDFATYYCQSTYGSSGSAGYGAAFGGGTKVEIK , write its reported EC50.
Found: 0.01 to 0.5 nM
